Target: FXR ligand binding domain (Homo sapiens, UniProt Q96RI1)
Sequence (Q96RI1 187-472 isoform Q96RI1-2): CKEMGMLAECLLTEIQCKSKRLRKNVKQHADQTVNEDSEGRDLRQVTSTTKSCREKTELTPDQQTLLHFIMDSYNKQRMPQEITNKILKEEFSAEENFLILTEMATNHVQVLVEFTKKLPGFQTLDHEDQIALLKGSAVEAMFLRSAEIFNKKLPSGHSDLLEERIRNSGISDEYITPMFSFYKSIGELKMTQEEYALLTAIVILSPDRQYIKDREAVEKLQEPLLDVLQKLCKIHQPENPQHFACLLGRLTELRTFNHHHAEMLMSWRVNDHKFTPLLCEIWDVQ
Test: Mammalian one hybrid (M1H) Gal4 reporter gene assay in HEK293 cells
Conditions: Gal4-FXR-LBD, luciferase reporter, 16 h
The entries below are paired with their reported log10 of EC50.
observedProperty: log10 of EC50 (log10 of the value in µM)

> print(dat)
                                inputsmiles  experimentalresult
1  Cc1onc(-c2c(Cl)cc(F)cc2Cl)c1COc1ccc(C2(O)CN(c3ncc(C(=O)O)cc3F)C2)c(Cl)c1               -0.75
2  O=C(O)c1cnc(N2CC(O)(c3ccc(OCc4c(-c5c(Cl)cc(F)cc5Cl)noc4C4CC4)cc3Cl)C2)c(F)c1               -2.42
3  O=C(NCCS(=O)(=O)O)c1cnc(N2CC(O)(c3ccc(OCc4c(-c5c(Cl)cc(F)cc5Cl)noc4C4CC4)cc3Cl)C2)c(F)c1                0.23
4  O=C(O)CNC(=O)c1cnc(N2CC(O)(c3ccc(OCc4c(-c5c(Cl)cc(F)cc5Cl)noc4C4CC4)cc3Cl)C2)c(F)c1                0.10
5  O=C(O)c1cnc(N2CC(O)(c3ccc(OCc4c(C5CC5)cnn4-c4c(Cl)cc(F)cc4Cl)cc3Cl)C2)c(F)c1               -2.07
6  O=C(O)c1ccnc(N2CC(O)(c3ccc(OCc4c(-c5c(Cl)cc(F)cc5Cl)noc4C4CC4)cc3Cl)C2)c1               -0.08
7  COc1ncc(C(=O)O)cc1[C@H]1C[C@](O)(c2ccc(OCc3c(-c4c(Cl)cc(F)cc4Cl)noc3C3CC3)cc2Cl)C1               -0.45
8  O=C(O)c1ccnc(N2CC(O)(c3ccc(OCc4c(-c5ccc(F)cc5F)noc4C4CC4)cc3Cl)C2)c1                0.48
